- ASSAYED TARGET: CK1α (Homo sapiens, UniProt P48729)
- Construct: HEK293 clonal lines with CRISPR KI HiBiT tag on CSNK1A1
- Sequence (P48729 whole entry): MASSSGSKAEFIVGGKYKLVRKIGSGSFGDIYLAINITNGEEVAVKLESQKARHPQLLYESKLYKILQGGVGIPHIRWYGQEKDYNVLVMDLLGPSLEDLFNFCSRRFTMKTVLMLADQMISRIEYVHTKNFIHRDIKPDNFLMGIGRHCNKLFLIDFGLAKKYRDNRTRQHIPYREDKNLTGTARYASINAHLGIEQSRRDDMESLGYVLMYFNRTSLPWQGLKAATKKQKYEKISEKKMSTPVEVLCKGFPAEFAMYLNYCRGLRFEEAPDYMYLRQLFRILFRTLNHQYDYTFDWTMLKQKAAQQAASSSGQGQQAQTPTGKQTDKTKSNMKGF
- Sequence (Q96SW2 whole entry, further chain): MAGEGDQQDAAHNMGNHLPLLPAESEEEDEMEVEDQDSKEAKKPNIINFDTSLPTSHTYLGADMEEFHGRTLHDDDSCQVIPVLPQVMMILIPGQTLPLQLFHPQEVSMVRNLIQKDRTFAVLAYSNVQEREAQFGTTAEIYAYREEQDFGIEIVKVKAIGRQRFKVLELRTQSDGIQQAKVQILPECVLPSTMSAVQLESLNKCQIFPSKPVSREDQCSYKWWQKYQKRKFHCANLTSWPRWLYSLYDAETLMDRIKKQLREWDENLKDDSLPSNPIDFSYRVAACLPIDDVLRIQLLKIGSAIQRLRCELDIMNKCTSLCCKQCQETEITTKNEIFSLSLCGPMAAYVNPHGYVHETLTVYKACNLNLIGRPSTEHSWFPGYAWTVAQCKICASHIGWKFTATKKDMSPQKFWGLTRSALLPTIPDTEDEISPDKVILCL
- Sequence (Q16531 2-1140 partner limits assumed): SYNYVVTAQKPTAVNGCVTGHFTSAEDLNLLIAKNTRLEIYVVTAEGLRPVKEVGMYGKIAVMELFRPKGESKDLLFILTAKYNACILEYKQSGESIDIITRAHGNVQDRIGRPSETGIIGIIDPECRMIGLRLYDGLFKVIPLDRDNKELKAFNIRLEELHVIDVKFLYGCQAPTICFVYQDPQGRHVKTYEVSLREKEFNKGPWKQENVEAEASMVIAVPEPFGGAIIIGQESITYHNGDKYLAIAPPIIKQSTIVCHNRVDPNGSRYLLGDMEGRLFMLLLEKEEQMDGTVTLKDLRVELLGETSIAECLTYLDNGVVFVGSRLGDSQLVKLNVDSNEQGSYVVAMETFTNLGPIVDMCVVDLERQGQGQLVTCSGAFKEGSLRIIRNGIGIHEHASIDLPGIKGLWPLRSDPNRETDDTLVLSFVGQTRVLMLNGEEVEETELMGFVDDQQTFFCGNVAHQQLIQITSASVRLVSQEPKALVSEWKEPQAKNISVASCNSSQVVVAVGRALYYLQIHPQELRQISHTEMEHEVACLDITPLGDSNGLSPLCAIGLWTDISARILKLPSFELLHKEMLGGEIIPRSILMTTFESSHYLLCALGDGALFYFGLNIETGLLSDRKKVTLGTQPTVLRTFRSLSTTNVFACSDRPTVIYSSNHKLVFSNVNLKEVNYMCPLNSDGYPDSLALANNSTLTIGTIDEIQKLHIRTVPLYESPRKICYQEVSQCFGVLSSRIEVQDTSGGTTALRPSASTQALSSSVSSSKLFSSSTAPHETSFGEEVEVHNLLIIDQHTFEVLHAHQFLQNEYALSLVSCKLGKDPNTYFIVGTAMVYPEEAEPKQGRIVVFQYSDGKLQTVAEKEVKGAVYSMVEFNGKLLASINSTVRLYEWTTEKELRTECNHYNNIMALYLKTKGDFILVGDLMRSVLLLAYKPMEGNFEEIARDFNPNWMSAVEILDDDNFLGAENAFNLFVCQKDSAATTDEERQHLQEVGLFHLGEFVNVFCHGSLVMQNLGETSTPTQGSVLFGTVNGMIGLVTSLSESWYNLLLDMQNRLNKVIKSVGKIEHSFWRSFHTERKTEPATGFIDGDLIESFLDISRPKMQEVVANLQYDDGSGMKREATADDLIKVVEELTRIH
- PROTOCOL DESCRIPTION: CK1α NanoBit Assay (HiBiT-tagged CSNK1A1, HEK293 clonal lines)
- Type: cell-based
- CONDITION: HEK293 HiBiT-CSNK1A1/LgBiT cells, 24 h incubation
TEST READOUT: DC50

Would you please look over these solved cases?
- COMPOUND: "Cc1ccnc(C2CCN(C(=O)Nc3ccc4c(c3)CN(C3CCC(=O)NC3=O)C4=O)CC2)n1 (centres unmarked) [Compound 246]"
  MEASURED: "> 1 µM"
- COMPOUND: "O=C1CCC(N2Cc3cc(NC(=O)N4CCc5c4cccc5-n4cccn4)ccc3C2=O)C(=O)N1 (centres unmarked) [Compound 340]"
  MEASURED: "< 0.1 µM"
- COMPOUND: "O=C1CCC(N2Cc3cc(NC(=O)N4c5cccc(C(F)(F)F)c5CC45COC5)ccc3C2=O)C(=O)N1 (centres unmarked) [Compound 296]"
  MEASURED: "< 0.1 µM"
- COMPOUND: "CNC(=O)[C@@H]1Cc2ccccc2N1C(=O)Nc1ccc2c(c1)CN(C1CCC(=O)NC1=O)C2=O (some centres unmarked) [Compound 326]"
  MEASURED: "0.1 to 1 µM"
- COMPOUND: "COCC1Cc2cc(C(F)(F)F)ncc2N1C(=O)Nc1ccc2c(c1)CN(C1CCC(=O)NC1=O)C2=O (centres unmarked) [Compound 321]"
  MEASURED: "< 0.1 µM"

Given CNC[C@@H]1Cc2ccccc2N1C(=O)Nc1ccc2c(c1)CN(C1CCC(=O)NC1=O)C2=O (some centres unmarked) [Compound 312] , state its recorded DC50. 0.1 to 1 µM
